# Test system: Pichia norvegensis
# runDescription: Antifungal activity against Candida mycoderma after 24 hrs by NCCLS two fold broth microdilution method
# Assay type: functional
readoutType: MIC (µg/mL)

sampleSmiles: CC(=O)Nc1ccc(S(=O)(=O)Cc2nc3ccccc3[nH]2)cc1
measurementTarget: Pichia norvegensis
readoutType: MIC
resultUnits: µg/mL
experimentalResult: 64

sampleSmiles: CCn1c(CS(=O)(=O)c2ccc(N)cc2)nc2ccccc21
measurementTarget: Pichia norvegensis
readoutType: MIC
resultUnits: µg/mL
experimentalResult: 512

sampleSmiles: OC(Cn1cncn1)(Cn1cncn1)c1ccc(F)cc1F
measurementTarget: Pichia norvegensis
readoutType: MIC
resultUnits: µg/mL
experimentalResult: 4

sampleSmiles: CCCCCCCCCCn1c(CS(=O)(=O)c2ccc(N)cc2)nc2ccccc21
measurementTarget: Pichia norvegensis
readoutType: MIC
resultUnits: µg/mL
experimentalResult: 512

sampleSmiles: CCCCCCCn1c(CS(=O)(=O)c2ccc(N)cc2)nc2ccccc21
measurementTarget: Pichia norvegensis
readoutType: MIC
resultUnits: µg/mL
experimentalResult: 512

sampleSmiles: Nc1ccc(S(=O)(=O)Cc2nc3ccccc3n2Cc2ccccc2Cl)cc1
measurementTarget: Pichia norvegensis
readoutType: MIC
resultUnits: µg/mL
experimentalResult: 512

sampleSmiles: Nc1ccc(S(=O)(=O)Cc2nc3ccccc3n2Cc2ccc(Cl)c(Cl)c2)cc1
measurementTarget: Pichia norvegensis
readoutType: MIC
resultUnits: µg/mL
experimentalResult: 512

sampleSmiles: CCCCCCCCn1c(CS(=O)(=O)c2ccc(NC(C)=O)cc2)nc2ccccc21
measurementTarget: Pichia norvegensis
readoutType: MIC
resultUnits: µg/mL
experimentalResult: 512

sampleSmiles: CCCn1c(CS(=O)(=O)c2ccc(N)cc2)nc2ccccc21
measurementTarget: Pichia norvegensis
readoutType: MIC
resultUnits: µg/mL
experimentalResult: 4

sampleSmiles: CCCCCn1c(CS(=O)(=O)c2ccc(NC(C)=O)cc2)nc2ccccc21
measurementTarget: Pichia norvegensis
readoutType: MIC
resultUnits: µg/mL
experimentalResult: 16

Attribution: ChEMBL document CHEMBL4138085
